Assay: Acute toxicity in mice
Assay type: in vivo
Details: mouse, in vivo, po, F + M; single dose intragastrically
Property measured: LD50 (mg/kg)

1) CC1CCC2C(C)C(OC(=O)Nc3ccccc3)OC3OC4(C)CCC1C32OO4 (centres unmarked) [Dihydroqinghaosu-benzenecarbamate] | 1070
2) CNC(=O)OC1OC2OC3(C)CCC4C(C)CCC(C1C)C24OO3 (centres unmarked) [Dihydroqinghaosu-methylcarbamate, Dihydroqinghaosu-Methylcarbamate] | 1120

====

Assay: Acute toxicity in mice
Assay type: in vivo
Details: mouse, in vivo, po, P.O. (per os)
Listing: LD50 of selected molecules
Property measured: LD50 (mg/kg)

1. CC1CCC2C(C)C(OC(=O)Nc3ccccc3)OC3OC4(C)CCC1C32OO4 (stereo not drawn) [Dihydroqinghaosu-benzenecarbamate] | 1060
2. C[C@H]1[C@@H](O)O[C@@H]2O[C@@]3(C)CC[C@H]4[C@H](C)CC[C@@H]1[C@@]24OO3 [Dihydroqinghaosu, dihydroqinghaosu, reference compound] | 765
3. CNC(=O)OC1OC2OC3(C)CCC4C(C)CCC(C1C)C24OO3 (stereo not drawn) [Dihydroqinghaosu-methylcarbamate, Dihydroqinghaosu-Methylcarbamate] | 1120
